Measured values drawn from patent US20260092074A1 for this set.

biological target: UniProt P15538; assay: Inhibition of hCYP11B1 in transfected V79 cells; settings: hamster V79 cells expressing human CYP11B1; substrate 11-deoxycortisol 200 nM
Sequence (P15538 25-503): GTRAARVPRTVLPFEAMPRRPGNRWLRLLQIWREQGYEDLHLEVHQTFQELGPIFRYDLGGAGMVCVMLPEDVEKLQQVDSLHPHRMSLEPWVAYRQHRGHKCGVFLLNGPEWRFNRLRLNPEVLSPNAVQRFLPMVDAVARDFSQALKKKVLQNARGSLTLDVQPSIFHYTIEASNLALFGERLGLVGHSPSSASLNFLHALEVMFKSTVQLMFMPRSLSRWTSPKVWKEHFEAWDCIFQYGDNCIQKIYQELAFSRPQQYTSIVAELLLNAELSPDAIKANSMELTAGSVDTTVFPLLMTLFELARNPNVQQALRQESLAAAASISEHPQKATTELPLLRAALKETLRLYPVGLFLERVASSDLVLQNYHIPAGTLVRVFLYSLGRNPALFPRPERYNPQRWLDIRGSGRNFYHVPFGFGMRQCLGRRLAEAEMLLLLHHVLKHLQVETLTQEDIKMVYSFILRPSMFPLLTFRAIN
Reported IC50 values are given for each entry in this list.
observable: IC50 (nM)

* N#Cc1ccc(S(=O)(=O)N2CCOc3c(-c4ccc5ncoc5c4)cncc32)cc1 [O131] | 248
* N#Cc1ccc(-c2cncc3c2OCCN3C(=O)C23CC(Nc4cccc(F)c4)(C2)C3)cc1 [O71] | 2170
* COc1ccc(C(=O)N2CCOc3c(-c4ccc(C#N)cc4)cncc32)cc1 [O22] | 3400
* N#Cc1ccc(-c2cncc3c2ccn3C(=O)c2cccc(C(F)(F)F)c2)cc1 [E23] | 79
* CN1C(=O)CCc2cc(-c3cncc4c3SCCN4S(=O)(=O)c3ccc(C#N)cc3)cc(F)c21 [S52] | 697

* * *

Molecular target: human CYP11B2 (Homo sapiens, UniProt P19099)
Construct: expressed in transfected cells
Sequence (P19099 25-503): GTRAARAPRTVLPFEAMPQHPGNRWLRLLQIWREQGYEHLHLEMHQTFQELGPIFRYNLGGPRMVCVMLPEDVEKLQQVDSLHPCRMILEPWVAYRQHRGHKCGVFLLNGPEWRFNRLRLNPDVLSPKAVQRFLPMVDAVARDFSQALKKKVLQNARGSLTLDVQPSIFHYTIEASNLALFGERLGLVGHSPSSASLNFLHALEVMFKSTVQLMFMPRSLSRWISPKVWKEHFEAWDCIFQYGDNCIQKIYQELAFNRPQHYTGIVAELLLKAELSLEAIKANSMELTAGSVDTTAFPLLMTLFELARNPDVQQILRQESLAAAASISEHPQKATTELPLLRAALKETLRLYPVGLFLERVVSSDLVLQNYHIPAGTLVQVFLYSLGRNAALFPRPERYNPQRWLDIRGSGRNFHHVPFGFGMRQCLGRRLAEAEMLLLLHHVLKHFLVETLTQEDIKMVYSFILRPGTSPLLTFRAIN
Experiment: Inhibition of hCYP11B2 in transfected V79 cells
Format: cell-based
Settings: hamster V79 cells expressing human CYP11B2; substrate 11-deoxycorticosterone 200 nM
Procedure: Genes of human CYP11B2 and rat NADPH-P450 reductase were transfected into hamster V79 cells using a lentivirus vector, and stably-expressing cell lines were selected by taking advantages of the associated puromycin-resistance gene. […] Subsequently, the substrate and product(s) were quantified using LC-MS/MS or HPLC at 260 nm, and the IC50 values were calculated according to inhibitory percentage.
pIC50: −log10 of the molar value.
Output Satisfied for pIC50 not less than 8; output Not satisfied otherwise.

- COc1cccc(S(=O)(=O)N2CCc3c(-c4ccc(C#N)cc4)cncc32)c1: Satisfied
- N#Cc1ccc(-c2cncc3c2OCCN3C(=O)C2CN(C(=O)c3cccc(F)c3)C2)cc1: Satisfied
- N#Cc1ccc(-c2cncc3c2SCCN3C(=O)c2cccc(Cl)c2)cc1: Not satisfied
- N#Cc1ccc(-c2cncc3c2CCN3C(=O)Cc2cccc(Cl)c2)cc1: Satisfied
- N#Cc1ccc(CN2CC(C(=O)N3CCOc4c(-c5ccc(C#N)cc5)cncc43)C2)cc1: Satisfied
- Cc1ccc(C(=O)N2CCSc3c(-c4ccc(C#N)cc4)cncc32)cc1: Not satisfied
- CC(=O)Nc1ccccc1C(=O)N1CCSc2c(-c3ccc(C#N)cc3)cncc21: Not satisfied
- N#Cc1ccc(-c2cncc3c2SCCN3S(=O)(=O)C2CN(C(=O)c3ccc(F)cc3)C2)cc1: Satisfied
- N#CN1CC2(C1)CN(c1cncc3c1OCCN3C(=O)C1CN(Cc3cccc(F)c3)C1)C2: Not satisfied
- N#Cc1ccc(-c2cncc3c2OCCN3S(=O)(=O)c2ccc3ccccc3c2)cc1: Satisfied
- N#Cc1ccc(-c2cncc3c2OCCN3C(=O)C2CN(Cc3cccc(F)c3)C2)cc1: Satisfied
- COc1ccc(S(=O)(=O)N2CCSc3c(-c4ccc(F)cc4)cncc32)cc1: Satisfied
- O=C(C1CN(Cc2cccc(F)c2)C1)N1CCOc2c(-c3ccc4nccn4c3)cncc21: Not satisfied
- Cc1ccccc1C(=O)n1ccc2c(-c3ccc(C#N)cc3)cncc21: Satisfied
- Cc1ccc(S(=O)(=O)n2ccc3c(-c4ccc(C#N)cc4)cncc32)cc1 [E2]: Satisfied
- N#Cc1ccc2[nH]c(-c3cncc4c3OCCN4C(=O)C3CN(Cc4cccc(F)c4)C3)cc2c1: Satisfied
- N#Cc1ccc(-c2cncc3c2OCCN3C(=O)c2cccc(C(F)(F)F)c2)cc1: Not satisfied
- N#Cc1ccc(-c2cncc3c2SCCN3Cc2ccc(F)cc2)cc1: Not satisfied
